src = paper PMC11672400

Test Method Notes: MTT cell viability / cytotoxicity on normal fibroblasts
Type: cell-based, mouse
Details: mouse, NCTC clone 929 (L929) mouse fibroblast cells, 12.5 µg/mL, 24h
Quantity: viability at 24 h, 12.5 µg/mL (%)

| Molecule | Quantity | Unit Spec | Endpoint Result |
| --- | --- | --- | --- |
| Cc1nn(CNc2ccc(Cl)cc2)c(C)c1[N+](=O)[O-] [4b] | viability at 24 h, 12.5 µg/mL | % | 98.6 |
| Cc1nn(CNc2ccccc2Cl)c(C)c1[N+](=O)[O-] [4f] | viability at 24 h, 12.5 µg/mL | % | 103 |
| Cc1nn(CNc2ccc(I)cc2)c(C)c1[N+](=O)[O-] [4d] | viability at 24 h, 12.5 µg/mL | % | 103 |
| Cc1nn(CNc2ccc(F)cc2)c(C)c1[N+](=O)[O-] [4a] | viability at 24 h, 12.5 µg/mL | % | 99 |
